For each record, write down the corresponding cell painting activity score.
# System: U-2 OS
# assay info: cell painting activity score (Mahalanobis distance from DMSO wells); higher = stronger morphological phenotype
# condition info: 2.5 µM; 24 h
Answers are plain numbers.

Below, each entry is followed by its recorded cell painting activity score result.
>>> recorded_number("O.O=P1(N(CCCl)CCCl)NCCCO1 (centres undefined)")
3.34
>>> recorded_number("O=C1C=C(Cl)C(=O)c2ccccc21")
19.4

For every item in the list below, what is its measured cell painting activity score?
1. COc1ccc(/C(Cl)=C(/C=O)c2ccc(OC)cc2)cc1
2. CC(C)(N=NC(C)(C)C(=N)N)C(=N)N.Cl.Cl
3. COC[C@H]1OC(=O)c2coc3c2[C@@]1(C)C1=C(C3=O)[C@@H]2CCC(=O)[C@@]2(C)C[C@H]1OC(C)=O
4. Oc1cccc(O)c1O
5. CN1C(=O)[C@@]23C[C@]4([C@]56C[C@@]78SS[C@@](CO)(C(=O)N7[C@H]5Nc5ccccc56)N(C)C8=O)c5ccccc5N[C@@H]4N2C(=O)[C@]1(CO)SS3
6. C=CC(=O)Nc1cccc(Nc2nc(Nc3ccc(Oc4ccnc(C(=O)NC)c4)cc3)ncc2F)c1
7. Nc1nccc2c1ncn2[C@@H]1C=C(CO)[C@@H](O)[C@H]1O

Result:
[8.89, 5.89, 8.96, 3.93, 17.3, 6.51, 26.9]
